Just for reference, the NIST ThermoML archive (doi:10.1021/acs.jced.5b00285) is where these values come from.

# Condition Description: 388.15 K; 101.33 kPa; Liquid; Alternating current cell with electrodes
Outcome Measure: electrical conductivity (S/m)
Give bare numbers, in S/m.

These solved cases illustrate the format of a correct answer.
stdin: Output measured electrical conductivity for this item: CCCCn1cc[n+](C)c1.O=S(=O)([N-]S(=O)(=O)C(F)(F)C(F)(F)F)C(F)(F)C(F)(F)F [1-butyl-3-methylimidazolium bis(perfluoroethylsulfonyl)imide]
stdout: 1.86

stdin: Output measured electrical conductivity for this item: CC(=O)[O-].CCn1cc[n+](C)c1 [1-ethyl-3-methylimidazolium acetate]
stdout: 4.53

stdin: Output measured electrical conductivity for this item: CCCCCCCCn1cc[n+](C)c1.O=S(=O)([N-]S(=O)(=O)C(F)(F)F)C(F)(F)F
stdout: 1.59

Next molecule, electrical conductivity to be filled in.
stdin: Output measured electrical conductivity for this item: CCCCCC[n+]1ccn(C)c1.O=S(=O)([N-]S(=O)(=O)C(F)(F)F)C(F)(F)F
stdout: 2.19

###

# Condition Description: 408.15 K; 101.33 kPa; Liquid; Alternating current cell with electrodes
Outcome Measure: electrical conductivity (S/m)
Numbers only, in S/m.

stdin: Output measured electrical conductivity for this item: CCCCCCCCn1cc[n+](C)c1.O=S(=O)([N-]S(=O)(=O)C(F)(F)F)C(F)(F)F
stdout: 2.13

stdin: Output measured electrical conductivity for this item: CCCCn1cc[n+](C)c1.O=S(=O)([N-]S(=O)(=O)C(F)(F)C(F)(F)F)C(F)(F)C(F)(F)F [1-butyl-3-methylimidazolium bis(perfluoroethylsulfonyl)imide]
stdout: 2.49

stdin: Output measured electrical conductivity for this item: CCCCCC[n+]1ccn(C)c1.O=S(=O)([N-]S(=O)(=O)C(F)(F)F)C(F)(F)F
stdout: 2.88

Next compound, electrical conductivity to be filled in.
stdin: Output measured electrical conductivity for this item: CC(=O)[O-].CCn1cc[n+](C)c1 [1-ethyl-3-methylimidazolium acetate]
stdout: 6.13

###

# Condition Description: 358.15 K; 101.33 kPa; Liquid; Alternating current cell with electrodes
Please respond with reported electrical conductivity for every item in the list.
Answers are plain numbers, in S/m.

These solved cases illustrate the format of a correct answer.
stdin: Output measured electrical conductivity for this item: CCCCCC[n+]1ccn(C)c1.O=S(=O)([N-]S(=O)(=O)C(F)(F)F)C(F)(F)F
stdout: 1.3

stdin: Output measured electrical conductivity for this item: CCCCn1cc[n+](C)c1.O=S(=O)([N-]S(=O)(=O)C(F)(F)C(F)(F)F)C(F)(F)C(F)(F)F [1-butyl-3-methylimidazolium bis(perfluoroethylsulfonyl)imide]
stdout: 1.05

stdin: Output measured electrical conductivity for this item: CCCCCCCCn1cc[n+](C)c1.O=S(=O)([N-]S(=O)(=O)C(F)(F)F)C(F)(F)F
stdout: 0.906

Next molecule, electrical conductivity to be filled in.
stdin: Output measured electrical conductivity for this item: CC(=O)[O-].CCn1cc[n+](C)c1 [1-ethyl-3-methylimidazolium acetate]
stdout: 2.5

###

# Condition Description: 338.15 K; 101.33 kPa; Liquid; Alternating current cell with electrodes
Outcome Measure: electrical conductivity (S/m)
One number for each entry, in S/m.

stdin: Output measured electrical conductivity for this item: CCCCCC[n+]1ccn(C)c1.O=S(=O)([N-]S(=O)(=O)C(F)(F)F)C(F)(F)F
stdout: 0.83

stdin: Output measured electrical conductivity for this item: CC(=O)[O-].CCn1cc[n+](C)c1 [1-ethyl-3-methylimidazolium acetate]
stdout: 1.48

stdin: Output measured electrical conductivity for this item: CCCCn1cc[n+](C)c1.O=S(=O)([N-]S(=O)(=O)C(F)(F)C(F)(F)F)C(F)(F)C(F)(F)F [1-butyl-3-methylimidazolium bis(perfluoroethylsulfonyl)imide]
stdout: 0.638

Next molecule, electrical conductivity to be filled in.
stdin: Output measured electrical conductivity for this item: CCCCCCCCn1cc[n+](C)c1.O=S(=O)([N-]S(=O)(=O)C(F)(F)F)C(F)(F)F
stdout: 0.556
